Assay: amyloid nucleation score (Sup35N fusion, yeast selection) (log enrichment); library NNK3; higher = more nucleation; inactive = no reads after selection;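 also: zero at mode of non-aggregating sequences after 7 days selection at 30°C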
valueKind: amyloid nucleation score

Some solved entries appear below for comparison.
TCSVTEMVTL inactive
HNRKYYTI inactive
YTRNKQDIWGGNHGSRCQNG inactive
IMKKESVAHHVNIGIHASLT -0.101
TFVLRDTDVCKCSSYKRPNF inactive

IN: What does the data say about its amyloid nucleation score? Entry: GSSYGVIIVQYYP
OUT: 2.02

IN: What does the data say about its amyloid nucleation score? Entry: CDTFVVNMSQFLSISTMAER
OUT: 0.66

IN: What does the data say about its amyloid nucleation score? Entry: GVSRLETGNFAASPMMHYKG
OUT: inactive

IN: What does the data say about its amyloid nucleation score? Entry: RDFRKSIYTCLEYYWHMVVT
OUT: inactive

IN: What does the data say about its amyloid nucleation score? Entry: QRISMIALDRFD
OUT: inactive

IN: What does the data say about its amyloid nucleation score? Entry: GFETLYIYAVRGN
OUT: inactive

IN: What does the data say about its amyloid nucleation score? Entry: SVVAYFLLIRYGDYRYHLQM
OUT: inactive
